tested on: THP-1 cells; assay: LDH cytotoxicity assay in THP-1 cells; details: CPP screen, 15 μM, 30 min pre-treatment, LPS 100 ng/ml
Readout Type: reduction of LPS-mediated toxicity (LDH assay)

>  <Substance>
Ac-ITVYASVTLTGRRRRRRR-NH2 [Peptide P7-Arg7, ITVYASVTLTGRRRRRRR]

>  <Meas Value>
some decrease

$$$$
>  <Substance>
Ac-RRRRRRRRRRRGITVYASVTLT-NH2 [Arg11-P7]

>  <Meas Value>
some decrease

$$$$
>  <Substance>
Ac-ITVYASVTLTGRRRRRRRRR-NH2 [Peptide P7-Arg9]

>  <Meas Value>
some decrease

$$$$
